Collected pIC50 values appear next to each entry.
testedOn: 5-Lipoxygenase from HWBL-1 20,000 xg Supernatant (Rattus norvegicus)
Construct: 20,000 xg supernatant from 1.5 million homogenized HWBL-1 cells; endogenous in cells
Sequence (P12527 whole entry): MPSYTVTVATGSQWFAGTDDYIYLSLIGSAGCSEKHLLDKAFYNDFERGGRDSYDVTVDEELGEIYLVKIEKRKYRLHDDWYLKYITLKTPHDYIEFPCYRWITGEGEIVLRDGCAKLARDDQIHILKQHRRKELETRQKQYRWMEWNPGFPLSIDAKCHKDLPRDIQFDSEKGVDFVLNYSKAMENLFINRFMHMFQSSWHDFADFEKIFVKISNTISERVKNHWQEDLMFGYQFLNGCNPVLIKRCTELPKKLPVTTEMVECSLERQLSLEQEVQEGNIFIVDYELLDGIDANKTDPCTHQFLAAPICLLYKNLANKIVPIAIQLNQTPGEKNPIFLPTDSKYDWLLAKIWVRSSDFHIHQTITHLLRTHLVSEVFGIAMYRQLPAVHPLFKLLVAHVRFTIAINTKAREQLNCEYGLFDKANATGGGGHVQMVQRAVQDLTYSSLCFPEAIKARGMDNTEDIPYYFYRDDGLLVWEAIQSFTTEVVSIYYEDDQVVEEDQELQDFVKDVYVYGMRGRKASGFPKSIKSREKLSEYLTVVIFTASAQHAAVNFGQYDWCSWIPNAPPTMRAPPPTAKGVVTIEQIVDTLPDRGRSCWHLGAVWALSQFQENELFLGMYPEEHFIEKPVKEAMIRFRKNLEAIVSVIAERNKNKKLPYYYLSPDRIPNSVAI
assayComment: 5-lipoxygenase inhibition, 20,000 xg supernatant of homogenized HWBL-1 cells, radiolabeled arachidonic acid
conditionLabel: read-out: IC50 (in vitro inhibitory potency against 5-lipoxygenase)
Here pIC50 is given on a logarithmic scale as minus log10 of the concentration in mol/L.

Incoming: Quick check: pIC50 of CN(C(=O)CN(O)C(N)=O)c1cccc(Oc2ccccc2)c1 [5, step 2] ?
Outgoing: 5.20

Incoming: Quick check: pIC50 of NC(=O)N(O)CCNC(=O)c1cccc(Oc2ccc(Cl)c(Cl)c2)c1 [Example 29] ?
Outgoing: 6.52

Incoming: Quick check: pIC50 of NC(=O)N(O)CCNC(=O)COc1ccc(Oc2ccccc2)cc1 [Example 72] ?
Outgoing: 6.96

Incoming: Quick check: pIC50 of NC(=O)N(O)CCNC(=O)c1cccc(Oc2ccc(Br)cc2)c1 [Example 53] ?
Outgoing: 6.36

Incoming: Quick check: pIC50 of CCCCCCOc1ccc(C(=O)NCCN(O)C(N)=O)cc1 [Example 57] ?
Outgoing: 6.54

Incoming: Quick check: pIC50 of CN(C(=O)CN(O)C(N)=O)c1cccc(OCc2ccccc2)c1 [Example 9] ?
Outgoing: 5.55
